Value source: a melting point compilation (Tetko et al.)

What melting point was measured for each of the following?

Nc1ncc(Br)cc1S(N)(=O)=O; 199 to 201 °C
Cn1cc(N2CCC(Br)C2=O)cn1 (stereo not drawn); 136 to 138 °C

What measured melting point goes with Clc1cc(-c2nnco2)ccn1 ?
109 to 111 °C

* * *

What melting point was measured for each of the following?

Cc1cn2c(n1)CCC(N)C2 (centres undefined); 49 to 51 °C
Nc1ncnc(Nc2ccc(F)cc2)n1; 249 to 251 °C
COc1ccc(Br)cc1CBr; 51 to 58 °C
Cc1ccc(N)cc1NC(=O)c1ccncc1; 201 to 203 °C
OCc1cnn(Cc2ccc(Br)cc2)c1; 72 to 74 °C
Sc1nc2cc(Cl)ccc2o1; 277 to 279 °C

Batch request: melting point for each of the following compounds.
1. N#CCC(=O)N1CCN(C(c2ccccc2)c2ccccc2)CC1
2. CCOC(=O)c1c(C)n(Cc2ccccc2)c2ccc(O)cc12
3. Cc1ccc(C(=O)O)c(C)n1

110 to 112 °C
198 to 200 °C
168 to 170 °C

* * *

measure: melting point

Examples with their reported melting point follow.
CC(C)(C)OC(=O)Nc1cccc(CC(=O)O)c1; 97 to 99 °C
CC(C)CCNC(N)=O; 43 to 45 °C
O=C(O)Cn1cn[nH]c1=O; 217 to 219 °C
COc1ccc(-c2nc(C)c(C(C)=O)s2)cc1; 92 to 94 °C
O=C(c1ccc(F)cc1Cl)N1CCNCC1; 75 to 77 °C
O=C(O)c1ccc(-n2cncn2)c(F)c1; 285 to 287 °C

Batch request: melting point for each of the following molecules.
1. CCOc1ccc(S(=O)(=O)Cl)cc1-c1ccccc1
2. CC(C)(C)OC(=O)NCCOc1cccc(N)c1
3. COc1ccc(S(=O)(=O)Nc2ccccc2Cl)cc1N
4. NC(CC1C(=O)Nc2ccccc21)=NO (stereo unspecified)
5. CC(N)c1cccc(O)c1 (stereo unspecified)
6. C#CCn1c2ccccc2c2ccccc21
7. Clc1nc(-c2cccs2)nc2ccccc12
8. N#CCn1c(CCl)nc2ccccc2c1=O

["78 to 80 °C", "65 to 67 °C", "93 to 95 °C", "183 to 185 °C", "166 to 168 °C", "103 to 105 °C", "123 to 125 °C", "143 to 145 °C"]

Batch request: melting point for each of the following molecules.
1. Sc1cnnc2ccccc12
2. COC(=O)NCCC(=O)O
3. Oc1nc(-c2ccccc2Cl)no1
4. O=C1COc2ncc(C(=O)O)cc2N1
5. CC(=O)c1ccc(N)nc1
6. CC(C)CNc1c(N)n(Cc2ccccc2)c(=O)[nH]c1=O
7. Nc1ccncc1F

1. 80 to 82 °C
2. 75 to 77 °C
3. 161 to 163 °C
4. 319 to 321 °C
5. 107 to 109 °C
6. 211 to 213 °C
7. 71 to 79 °C

* * *

measure: melting point

NCc1ccc(-n2cnc3ccccc32)nc1; 97 to 99 °C
OCCNc1ncnc2ccccc12; 172 to 174 °C
CSc1ccc(C(=O)O)cn1; 182 to 184 °C
CCOC(=O)c1c(CC(C)C)csc1N; 58 to 60 °C
Sc1nc2cc(Cl)ccc2n1CCOc1ccccc1; 182 to 184 °C

Batch request: melting point for each of the following compounds.
1. NC(=S)c1ccc(NC(=O)CC2CCCC2)cc1
2. O=Cc1cc(Cl)ccc1OCc1cccnc1

1: 195 to 197 °C; 2: 79 to 81 °C

* * *

What melting point was measured for each of the following?

Nc1cc(-c2cccc(Cl)c2)nn1CCO; 146 to 148 °C

Batch request: melting point for each of the following molecules.
1. COc1sc(C=O)cc1Br
2. CC(C)(C(=O)O)c1ccc([N+](=O)[O-])cc1
3. O=C(O)C1CC1C(=O)O (stereo not drawn)
4. Nc1cc(-c2ccc(Cl)cc2)no1
5. CC(C)c1noc(-c2ccnc(Cl)c2)n1
6. O=C(O)COc1ccccc1-c1ccccc1

1. 115 to 117 °C
2. 129 to 131 °C
3. 177 to 179 °C
4. 164 to 166 °C
5. 35 to 37 °C
6. 102 to 104 °C

Batch request: melting point for each of the following molecules.
1. COC(=O)c1c[nH]c(C2CC2)n1
2. CC(=O)N(c1ccc(F)cc1)c1nc(C=O)cs1
3. OCc1ccc(N2CCCC2)cc1
4. O=C(O)CCS(=O)(=O)c1ccc2c(c1)OCCO2

119 to 121 °C
216 to 218 °C
61 to 63 °C
154 to 156 °C

* * *

measure: melting point

Examples with their reported melting point follow.
CCOc1ccc(C=CCN)cc1; 46 to 48 °C
Nc1ccc(Cl)c(C(=O)NCc2ccccc2F)c1; 95 to 97 °C
Cc1ccccc1OCC(=O)NN; 120 to 122 °C

Batch request: melting point for each of the following molecules.
1. Cc1csc2ccc(C#N)cc12
2. O=C(c1ccc(Cl)c([N+](=O)[O-])c1)N1CCCCC1
3. O=C(O)CNc1ccccc1Cl

1. 97 to 99 °C
2. 74 to 76 °C
3. 173 to 175 °C

Batch request: melting point for each of the following molecules.
1. O=C(O)c1ccncc1N1CCOCC1
2. Nc1cc(-c2cccc(Br)c2)no1
3. O=CC(Br)C=Nc1cnc(Br)cn1 (centres undefined)
4. Nc1nn2cc(-c3ccccc3)nc2s1
5. CCOc1ccc([N+](=O)[O-])cc1CO
6. COC(=O)c1ccc(OC)cc1N
7. CN(C)c1nc(=N)cc[nH]1

["201 to 203 °C", "122 to 124 °C", "177 to 179 °C", "183 to 185 °C", "102 to 104 °C", "76 to 78 °C", "149 to 151 °C"]

Batch request: melting point for each of the following molecules.
1. Cc1nnc(-c2ccccc2F)o1
2. COC(=O)c1c(-c2ccc(F)cc2)csc1N
3. Nc1nc(-c2cccc(Br)c2)cs1
4. O=Cc1cc2c(cc1[N+](=O)[O-])OCCO2

37 to 39 °C
135 to 137 °C
121 to 125 °C
169 to 171 °C

Batch request: melting point for each of the following molecules.
1. NC(=O)c1csc(C=O)c1
2. CCOc1ccc(-c2csc(N)n2)cc1
3. O=C1CCc2cc3c(cc21)OCCO3
4. Cc1ccc(S(=O)(=O)N2CC(Cc3cccc(F)c3)C2)cc1
5. Cn1ccc2ccnc(Cl)c21
6. CC1Cc2ccccc2N1Cc1ccoc1C(=O)O (centres undefined)
7. CCOC(=O)Nc1cccc(C(=O)O)c1

155 to 157 °C
248 to 250 °C
118 to 120 °C
57 to 59 °C
57 to 59 °C
170 to 172 °C
196 to 198 °C

* * *

What melting point was measured for each of the following?

O=C(NC1CCNCC1)c1ccccc1; 138 to 140 °C
CC1=NN(c2ccccc2)C(=O)C1=NO; 131 to 133 °C
CC1CCCN1C(=O)c1cc2ccccc2cc1N (stereo not given); 123 to 125 °C

Batch request: melting point for each of the following molecules.
1. COc1cc(CN)cc(OC)c1
2. Cc1ccccc1NC(=O)CC#N
3. CCC(C)C(C(=O)O)c1ccccc1 (stereo not given)
4. O=C1NC(=O)N2CCCC12 (stereo not given)
5. CCNc1ncc(C(=O)O)s1
6. OCc1cnc2ccccc2c1
7. COc1ccc(Nc2ccccc2C(=O)O)cc1
8. CC(Oc1cccc(C=O)c1)C(=O)O (stereo not given)

1. 35 to 37 °C
2. 133 to 135 °C
3. 50 to 52 °C
4. 149 to 151 °C
5. 187 to 189 °C
6. 82 to 84 °C
7. 184 to 186 °C
8. 65 to 67 °C

Batch request: melting point for each of the following molecules.
1. O=C(O)Cc1ccc(NC(=O)c2ccc(Br)o2)cc1
2. O=C(CC(=O)C(F)(F)F)c1ccncc1
3. O=C1NC(=O)C2(CCCc3ccccc32)N1 (stereo not given)
4. O=C(O)CCn1cnc2sccc2c1=O

1. 199 to 201 °C
2. 255 to 257 °C
3. 203 to 205 °C
4. 165 to 167 °C

* * *

measure: melting point

Examples with their reported melting point follow.
O=C(O)CCCNC(=O)c1ccsc1; 235 to 237 °C
O=C(O)CCc1nc(-c2cccs2)no1; 108 to 110 °C
CN(C)S(=O)(=O)c1cccc(N)c1; 125 to 127 °C
N=C(NN)c1cc(Cl)ccn1; 248 to 250 °C

Batch request: melting point for each of the following molecules.
1. Nc1ccc(CC(=O)N2CCN(c3ncccn3)CC2)cc1
2. O=[N+]([O-])c1ccc2oc(S)nc2c1

["193 to 195 °C", "241 to 243 °C"]

Batch request: melting point for each of the following molecules.
1. CCCC(=O)Nc1cccc(N)c1C
2. CC(=O)c1ccc(NC(=O)c2ccc(C#N)cc2)cc1
3. Cc1n[nH]c(C(=O)O)c1Br
4. CSc1ccc(C(=O)CCl)cc1

1. 106 to 108 °C
2. 228 to 230 °C
3. 271 to 273 °C
4. 72 to 74 °C

Batch request: melting point for each of the following molecules.
1. Cc1nc(N)[nH]c(=O)c1CC(=O)O
2. COc1ccc(CCNC(N)=S)cc1OC
3. Cc1ccc(-n2nc(C(=O)O)c3c2CCC3)c(C)c1
4. CCN(CC)C(=O)Cn1cccc(C(=O)O)c1=O
5. O=C(O)c1csc(Br)c1

1. 313 to 315 °C
2. 159 to 161 °C
3. 198 to 200 °C
4. 114 to 116 °C
5. 137 to 139 °C
